These measurements were taken from paper PMC10515640.

tested target: 14-3-3σ/C-RAF (Homo sapiens)
Construct: The 14-3-3 σ isoform (full-length for mass spectrometry and fluorescence anisotropy assays, ΔC for crystallography); made in house; host or cells: E. coli Rosetta 2(DE3)pLysS, pPROEX HTb vector
Sequence (P31947 whole entry, canonical isoform): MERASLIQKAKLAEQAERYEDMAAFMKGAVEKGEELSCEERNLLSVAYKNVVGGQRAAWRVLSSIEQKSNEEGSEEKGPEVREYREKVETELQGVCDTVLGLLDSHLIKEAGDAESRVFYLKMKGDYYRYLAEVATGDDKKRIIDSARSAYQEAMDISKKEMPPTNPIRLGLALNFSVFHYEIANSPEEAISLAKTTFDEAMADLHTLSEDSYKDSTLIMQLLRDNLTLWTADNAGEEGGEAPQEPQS
test: Mass spectrometry dose response, compound binding to 14-3-3σ in the presence of C-RAF phosphopeptide
study conditions: 100 nM compound, 100 nM 14-3-3σ, C-RAF peptide 18 µM, head prints 24h
Excerpt: Two orthogonal assays were developed for screening. For the primary assay, mass spectrometry (MS) was used to monitor the formation of the covalent bond between the compound and the native cysteine (Cys38 on 14-3-3σ) (Figure 1D). […] As a secondary assay, fluorescence anisotropy (FA) was used. […]
Recorded Percentage (%) bound of compound to 14-3-3σ, CRAF 24h determines the group label, using 0 (below 2%), 1 (2% to below 10%), 2 (10% or more)

Here are 8 compounds together with their reported answers.
compound | tested target | class assignment
O=C(CCl)NCCC1CCN(C(=O)C2(Nc3ccc(Cl)cc3)CCNCC2)CC1 | 14-3-3σ/C-RAF (Homo sapiens) | 0
CC(C)(Oc1ccc(Cl)cc1)C(=O)N1CCC(CCNC(=O)CCl)CC1 | 14-3-3σ/C-RAF (Homo sapiens) | 2
O=C(CCl)N1CC2(CCN(C(=O)C3(Nc4ccc(Cl)cc4)CCOCC3)CC2)C1 | 14-3-3σ/C-RAF (Homo sapiens) | 1
O=C(CCl)NCC1CCN(C(=O)C2(Nc3ccc(Cl)cc3)CCCC2)CC1 | 14-3-3σ/C-RAF (Homo sapiens) | 2
Cl.NC1CCC(Nc2ccccc2)(C(=O)N2CCC(CNC(=O)CCl)CC2)CC1 (stereo not shown) | 14-3-3σ/C-RAF (Homo sapiens) | 2
O=C(CCl)NCC1CCN(C(=O)C2(Oc3ccc(Cl)cc3)CC2)CC1 | 14-3-3σ/C-RAF (Homo sapiens) | 0
CC(C)(Oc1ccc(Cl)cc1)C(=O)N1CCC(CNC(=O)CCl)CC1 | 14-3-3σ/C-RAF (Homo sapiens) | 2
O=C(CCl)N1CCC2(CC1)CN(C(=O)C1(Nc3ccc(Cl)cc3)CCOCC1)C2 | 14-3-3σ/C-RAF (Homo sapiens) | 0

GET /class?item= O=C(CCl)N1CCC2(CC1)CCN(C(=O)C1(Nc3ccc(Cl)cc3)CCOCC1)CC2
2

For this compound, which bin applies? C=CS(=O)(=O)NCC1CCN(C(=O)C(C)(C)Oc2ccc(Cl)cc2)CC1
2

====

Property: Percentage (%) bound of compound to 14-3-3σ, ERα 8h; scope: individual compounds
tested target: 14-3-3σ/ERα (Homo sapiens, UniProt P03372+P31947)
Construct: The 14-3-3 σ isoform (full-length for mass spectrometry and fluorescence anisotropy assays, ΔC for crystallography); made in house; host or cells: E. coli Rosetta 2(DE3)pLysS, pPROEX HTb vector
test: Mass spectrometry dose response, compound binding to 14-3-3σ in the presence of ERα phosphopeptide
study conditions: 100 nM compound, 100 nM 14-3-3σ, ERα-peptide 2 µM, 8h
Unit % implied. Number only.

Some compounds with recorded Percentage (%) bound of compound to 14-3-3σ, ERα 8h:
record smiles | observed measurement
O=C(CCl)CCC1CCN(C(=O)C2(Nc3ccc(Cl)cc3)CCOCC2)CC1 | 97.0
CC(C)(Oc1ccc(Cl)cc1)C(=O)N1CCC(CNC(=O)CCl)CC1 | 6.4

Under 14-3-3σ/ERα (Homo sapiens, UniProt P03372+P31947): Percentage (%) bound of compound to 14-3-3σ, ERα 8h value of C=CS(=O)(=O)NCC1CCN(C(=O)C(C)(C)Oc2ccc(Cl)cc2)CC1 ?
4.7

Please provide the recorded Percentage (%) bound of compound to 14-3-3σ, ERα 8h for O=C(CCl)NC1CC2(CCN(C(=O)C3(Nc4ccc(Cl)cc4)CCOCC3)CC2)C1 , tested on 14-3-3σ/ERα (Homo sapiens, UniProt P03372+P31947).
60.3
